pIC50: −log10 of the molar value.
Literature survey of pIC50 (system: Proto-oncogene tyrosine-protein kinase Src (Homo sapiens, UniProt P12931)).
Attribute Measured: pIC50

Compound String: COc1ccc(C2=C(C(N)=O)C(=O)c3ccccc32)cc1
pIC50: 5.40

I: CCN(CC)CCOc1ccc(Nc2nnc3cc(-c4c(C)cccc4C)cc(C)c3n2)cc1
II: Cc1ccc(C(=O)Nc2cccc(C(F)(F)F)c2)cc1Nc1nc2ccccc2n1-c1cc(NCCCCN(C)C)ncn1
Among I and II , whose measured pIC50 is the smaller figure? API: response body contains the label of the selected item.
II
(II: 6.31, I: 8.00)

a: O=C(Cc1ccccc1)N[C@@H](Cc1ccc(OP(=O)(O)O)cc1)C(=O)N[C@@H](CO)c1nc(Cc2ccc(C(F)(F)F)cc2)no1
b: CC[C@H](C)[C@H](NC(=O)C[C@@H]1NC(=O)[C@H](CCC(=O)O)NC(=O)[C@H](Cc2ccc(OP(=O)(O)O)cc2)NC1=O)C(=O)O
Among a and b , whose measured pIC50 is the smaller figure? API: response body contains the label of the selected item.
a
(a: 3.79, b: 5.82)
